# reported pIC50; entries follow
# MEASURED ON: HCV NS5B570n-BK (Hepatitis C virus genotype 1b, UniProt P26663)
# Construct: His tag (N); made in house; host or cells: E. coli strain M15
# Sequence (P26663 2421-2989): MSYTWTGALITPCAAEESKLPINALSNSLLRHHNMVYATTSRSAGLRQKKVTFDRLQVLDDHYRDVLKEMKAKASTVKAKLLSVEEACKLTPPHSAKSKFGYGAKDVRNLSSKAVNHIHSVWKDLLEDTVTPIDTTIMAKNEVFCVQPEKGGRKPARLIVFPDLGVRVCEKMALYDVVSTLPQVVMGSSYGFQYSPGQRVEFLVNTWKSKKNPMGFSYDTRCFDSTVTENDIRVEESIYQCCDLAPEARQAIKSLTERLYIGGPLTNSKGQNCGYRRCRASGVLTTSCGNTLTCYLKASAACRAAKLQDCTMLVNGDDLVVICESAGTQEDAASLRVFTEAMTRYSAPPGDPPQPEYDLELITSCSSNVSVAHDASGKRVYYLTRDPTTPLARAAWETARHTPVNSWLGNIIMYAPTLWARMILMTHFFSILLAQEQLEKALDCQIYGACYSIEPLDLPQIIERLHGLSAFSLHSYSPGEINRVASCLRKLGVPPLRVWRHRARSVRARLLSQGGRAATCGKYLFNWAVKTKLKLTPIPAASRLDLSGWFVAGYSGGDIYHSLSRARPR
# PROTOCOL DESCRIPTION: HCV NS5B RNA polymerase activity
# Format: biochemical, HCV BK strain
# ASSAY SETUP: 20 nM cIRES
The read-out pIC50 is expressed as -log10 of concentration in moles per litre.

| CHEMICAL STRUCTURE | REPORTED RESULT |
| --- | --- |
| CCS(=O)(=O)Nc1ccc2c(c1)S(=O)(=O)C=C(c1c(O)c3cc(F)ccc3n(CCC3CC3)c1=O)N2 | 8.14 |
| CS(=O)(=O)Nc1ccc2c(c1)S(=O)(=O)C=C(c1c(O)c3cc(F)ccc3n(Cc3ccc(F)cc3)c1=O)N2 | 8.26 |
| CS(=O)(=O)Nc1ccc2c(c1)S(=O)(=O)C=C(c1c(O)c3cc(F)c(F)cc3n(Cc3ccc(F)cc3)c1=O)N2 | 7.84 |

Now look at this entry.
Entry CC(C)(C)[C@H]1C(O)=C(C2=CS(=O)(=O)c3cc(NS(C)(=O)=O)ccc3N2)C(=O)N1Cc1ccc(F)c(Cl)c1 has what pIC50?
8.34
